Each entry below carries its reported IC50.
# test_system: Human HDAC4 (Homo sapiens, UniProt P56524)
# Construct: amino acids 627-1085 with N-terminal GST tag; GST (N); host or cells: baculovirus expression system
# Sequence (P56524 627-1084 limits assumed): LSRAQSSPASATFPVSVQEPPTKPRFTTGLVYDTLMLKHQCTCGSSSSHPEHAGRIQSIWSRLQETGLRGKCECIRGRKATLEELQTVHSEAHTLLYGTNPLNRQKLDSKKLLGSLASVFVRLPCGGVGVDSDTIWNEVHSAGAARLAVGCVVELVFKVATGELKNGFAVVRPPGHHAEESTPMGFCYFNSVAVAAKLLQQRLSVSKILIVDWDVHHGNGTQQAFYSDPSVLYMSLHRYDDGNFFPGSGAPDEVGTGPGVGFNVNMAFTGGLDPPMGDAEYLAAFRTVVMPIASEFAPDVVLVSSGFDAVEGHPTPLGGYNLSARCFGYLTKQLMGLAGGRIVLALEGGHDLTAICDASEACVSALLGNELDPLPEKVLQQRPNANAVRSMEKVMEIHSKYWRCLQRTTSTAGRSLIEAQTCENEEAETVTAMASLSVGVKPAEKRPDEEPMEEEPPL
# protocol_details: HDAC4 biochemical assay, class IIa-specific substrate
# conditions: read-out: HDAC Isoform IC50 (nM) 4

# annotated cases, reported IC50 shown
Specify reported IC50 for the molecule shown: COc1cnc(N(Cc2ccc(-c3noc(C(F)(F)F)n3)s2)c2cc(C(F)(F)F)cnn2)cn1 [Example EP] ≤ 10000 nM

Note IC50 for the molecule shown: CC(C)(O)c1cnnc(N(Cc2ccc(-c3noc(C(F)(F)F)n3)s2)c2cnccn2)c1 [Example GS] ≤ 1000 nM

// fetch IC50 given entry Fc1cc(-c2noc(C(F)(F)F)n2)sc1CN(c1cnccn1)c1cnccn1 [Example EY] ≤ 10000 nM

Write down IC50 measured for item C[C@H]1CCCN1C(=O)c1cnnc(N(Cc2ccc(-c3noc(C(F)(F)F)n3)s2)c2cnccn2)c1 [Example GY] ≤ 10000 nM

For Cn1ccc2c(N(Cc3ccc(-c4noc(C(F)(F)F)n4)s3)c3cnccn3)ncnc21 [Example CM] , write its IC50. ≤ 10000 nM

Please give the documented IC50 of FC(F)(F)c1cnnc(N(Cc2ccc(-c3noc(C(F)(F)F)n3)s2)c2cccnn2)c1 [Example ER] ≤ 10000 nM

Given the molecule FC(F)(F)c1cncc(N(Cc2ccc(-c3noc(C(F)(F)F)n3)s2)c2cnccn2)c1 [Example AQ] , write its reported IC50. ≤ 10000 nM

Then this molecule:
Recall and state the measured IC50 for FC(F)(F)c1nc(-c2ccc(CN(c3cnccn3)c3cccnn3)s2)no1 [Example DD] . ≤ 1000 nM

Source: patent US20210038607A1
